The entries below come with measured pest or weed control at 1 µg/cm2, 100 g/ha values attached.
Tested on: adult brown dog ticks (Rhipicephalus sanguineus)
experiment_notes: Rhipicephalus sanguineus in-vitro contact test with adult brown dog ticks
Format: in vivo
assay_setup: 1 μg/cm^2 (=100 g/ha), after 48 hours, read-out: efficacy (ticks dead or moribund)
Answer in %, number only, no unit symbol.

| compound | data_value |
| --- | --- |
| CC(NC(=O)c1cc(Cl)cc(C(C)(C)C#N)c1)c1nc(N2CCOCC2)nn1-c1ccc(C#N)cn1 (centres unmarked) [I-159] | 100 |
| C[C@H](NC(=O)c1cc(Br)cc(OC(F)(F)F)c1)c1nc(N(C)C)nn1-c1ncccn1 [I-139] | 80 |
| C[C@H](NC(=O)c1cc(OC(F)(F)F)cc(C2CC2)c1)c1nc(N(C)C)nn1-c1ncccn1 [I-138] | 100 |
| CNc1nc(C(C)NC(=O)c2cc(C(F)(F)F)cc(C(F)(F)F)c2)n(-c2ncccn2)n1 (centres unmarked) [I-088] | 100 |
| C[C@H](NC(=O)c1cc(C(F)(F)F)cc(C(F)(F)F)c1)c1nc(N)nn1-c1ncccn1 [I-134] | 100 |

Look up adult brown dog ticks (Rhipicephalus sanguineus) data: pest or weed control at 1 µg/cm2, 100 g/ha of CC(NC(=O)c1cc(Cl)cc(C(F)(F)F)c1)c1nc(NC(=O)C2(Cl)CC2)nn1-c1ncccn1 (centres unmarked) [I-022] , then report it.
100

Look up adult brown dog ticks (Rhipicephalus sanguineus) data: pest or weed control at 1 µg/cm2, 100 g/ha of CC(NC(=O)c1cc(C(F)(F)F)cc(C(F)(F)F)c1)c1nc(N(C)C(=O)OC(C)(C)C)nn1-c1ncccn1 (racemic) [I-009] , then report it.
80

Look up adult brown dog ticks (Rhipicephalus sanguineus) data: pest or weed control at 1 µg/cm2, 100 g/ha of CC(NC(=O)c1cc(Cl)cc(C(F)(F)F)c1)c1nc(N)nn1-c1ccc(Cl)cn1 (racemic) [I-006] , then report it.
80

----------
The entries below come with measured mortality at 4 ppm values attached.
Tested on: green peach aphid (Myzus persicae)
experiment_notes: Myzus persicae oral test
Type: in vivo
assay_setup: 120 h
Description: Solvent: 100 parts by weight acetone To produce a suitable preparation of active compound, 1 part by weight of active compound is mixed with the stated amount of solvent, and the concentrate is diluted with water to the desired concentration. 50 μL compound solution is filled in microtiter plates and 150 μL IPL41 insect medium (33%+15% sugar) is added to obtain a total volume of 200 μL per well. […] After 5 days mortality in % is determined. […]
Answer in %, number only, no unit symbol.

| molecule | unit_label | data_value |
| --- | --- | --- |
| CC(=O)N(C)c1nc(C(C)NC(=O)c2cc(C(F)(F)F)cc(C(F)(F)F)c2)n(-c2ncccn2)n1 (centres unmarked) | % | 100 |
| CC(NC(=O)c1cc(Cl)cc(Cl)c1)c1nc(-c2ncccn2)nn1-c1ncccn1 (centres unmarked) | % | 90 |
| CNc1nc(C(C)NC(=O)c2cc(Br)cc(OC(F)(F)F)c2)n(-c2ncccn2)n1 (centres unmarked) | % | 100 |
| CC(NC(=O)c1cc(Br)cc(Br)c1)c1nc(N)nn1-c1ncccn1 (centres unmarked) | % | 100 |
| CC(Cl)C(=O)Nc1nc(C(C)NC(=O)c2cc(Cl)cc(S(C)(=O)=O)c2)n(-c2ncccn2)n1 (centres unmarked) | % | 90 |
| CC(NC(=O)c1cc(Cl)cc(C(F)(F)F)c1)c1nc([S+](C)[O-])nn1-c1ccc(Cl)cn1 (centres unmarked) | % | 100 |

Indicate the recorded mortality at 4 ppm value for this molecule: CC(NC(=O)c1cc(F)cc(C#N)c1)c1nc(N)nn1-c1ncccn1 (centres unmarked)
100

Indicate the recorded mortality at 4 ppm value for this molecule: CNC(=O)c1nc(C(C)NC(=O)c2cc(Cl)cc(C(F)(F)F)c2)n(-c2ccc(C#N)cn2)n1 (centres unmarked)
100

----------
System: fall armyworm larvae (Spodoptera frugiperda)
experiment_notes: Spodoptera frugiperda spray test (maize leaf sections)
Format: in vivo
assay_setup: 168 h
The entries below come with measured mortality at 100 g/ha values attached.
Answer in %, number only, no unit symbol.

These recorded examples may help you get a feel for the data.
| molecule | target_entity | unit_label | mortality at 100 g/ha |
| --- | --- | --- | --- |
| CNc1nc(C(C)NC(=O)c2cc(Cl)cc(Br)c2)n(-c2ncccn2)n1 (stereo not drawn) [I-121] | fall armyworm larvae (Spodoptera frugiperda) | % | 100 |
| C[C@H](NC(=O)c1cc(Cl)cc(C(C)(C)C#N)c1)c1nc(N)nn1-c1ccc(C#N)cn1 [I-155] | fall armyworm larvae (Spodoptera frugiperda) | % | 100 |

Indicate the recorded mortality at 100 g/ha value for this molecule: C[C@H](NC(=O)c1cc(Cl)cc(C(C)(C)C#N)c1)c1nc(N2CCOCC2)nn1-c1ccc(C#N)cn1 [I-204]
100

----------
The entries below come with measured mortality at 500 g/ha values attached.
Test system: larvae of the southern green stink bug (Nezara viridula)
experiment_notes: Nezara viridula spray test
Assay type: in vivo
assay_setup: in Hordeum vulgare, 96 h
Answer in %, number only, no unit symbol.

These recorded examples may help you get a feel for the data.
| compound | mortality at 500 g/ha / % |
| --- | --- |
| CC(=O)Nc1nc(C(C)NC(=O)c2cc(Cl)cc(C(F)(F)F)c2)n(-c2ccc(Cl)cn2)n1 (racemic) | 90 |
| CC(NC(=O)c1cc(C(F)(F)F)cc(C(F)(F)F)c1)c1nc(N(C)C)nn1-c1ccc(C#N)cn1 (stereo not drawn) | 100 |

Look up larvae of the southern green stink bug (Nezara viridula) data: mortality at 500 g/ha of CC(NC(=O)c1cc(OC(F)(F)F)cc(C2CC2)c1)c1nc(N(C)C)nn1-c1ccc(C#N)cn1 (stereo not drawn) , then report it.
100

Look up larvae of the southern green stink bug (Nezara viridula) data: mortality at 500 g/ha of CC(NC(=O)c1cc(Cl)cc(C(C)(C)C#N)c1)c1nc(N2CCOCC2)nn1-c1ccc(C#N)cn1 (stereo not drawn) , then report it.
90

Look up larvae of the southern green stink bug (Nezara viridula) data: mortality at 500 g/ha of CC(NC(=O)c1cc(C(F)(F)F)cc(C(F)(F)F)c1)c1nc(N(C)C)nn1-c1ncc(Cl)cn1 (stereo not drawn) , then report it.
100

Look up larvae of the southern green stink bug (Nezara viridula) data: mortality at 500 g/ha of C[C@H](NC(=O)c1cc(OC(F)(F)F)cc(C2CC2)c1)c1nc(N)nn1-c1ccc(C#N)cn1 , then report it.
100

Look up larvae of the southern green stink bug (Nezara viridula) data: mortality at 500 g/ha of CON(C)c1nc([C@H](C)NC(=O)c2cc(OC(F)(F)F)cc(C3CC3)c2)n(-c2ncccn2)n1 , then report it.
100

Look up larvae of the southern green stink bug (Nezara viridula) data: mortality at 500 g/ha of CC(NC(=O)c1cc(Cl)cc(C(F)(F)F)c1)c1nc([S+](C)[O-])nn1-c1ccc(Cl)cn1 (stereo not drawn) , then report it.
100

Look up larvae of the southern green stink bug (Nezara viridula) data: mortality at 500 g/ha of C=CC(=O)Nc1nc(C(C)NC(=O)c2cc(Cl)cc(C(F)(F)F)c2)n(-c2ccc(Cl)cn2)n1 (stereo not drawn) , then report it.
100

Look up larvae of the southern green stink bug (Nezara viridula) data: mortality at 500 g/ha of CC(NC(=O)c1cc(Cl)cc(OC(F)(F)F)c1)c1nc(N)nn1-c1ccc(C#N)cn1 (stereo not drawn) , then report it.
100

Look up larvae of the southern green stink bug (Nezara viridula) data: mortality at 500 g/ha of CC(=O)Nc1nc(C(C)NC(=O)c2cc(Cl)cc(S(C)(=O)=O)c2)n(-c2ccc(Cl)cn2)n1 (stereo not drawn) , then report it.
100

Look up larvae of the southern green stink bug (Nezara viridula) data: mortality at 500 g/ha of CSc1nc(C(C)NC(=O)c2cc(Cl)cc(S(C)(=O)=O)c2)n(-c2ccc(Cl)cn2)n1 (racemic) , then report it.
100

----------
The entries below come with measured pest or weed control at 1 µg/cm2, 100 g/ha values attached.
Tested on: adult brown dog ticks (Rhipicephalus sanguineus)
experiment_notes: Rhipicephalus sanguineus in-vitro contact test with adult brown dog ticks
Format: in vivo
assay_setup: 1 μg/cm^2 (=100 g/ha), after 48 hours, read-out: efficacy (ticks dead or moribund)

| compound | data_value |
| --- | --- |
| CC(NC(=O)c1cc(C(F)(F)F)cc(C(F)(F)F)c1)c1nc(N)nn1-c1ccc(C#N)cn1 (stereo not shown) | 100% |

Indicate the recorded pest or weed control at 1 µg/cm2, 100 g/ha value for this compound: C[C@H](NC(=O)c1cc(C(F)(F)F)cc(C(F)(F)F)c1)c1nc(N(C)C)nn1-c1ncccn1
80%

Indicate the recorded pest or weed control at 1 µg/cm2, 100 g/ha value for this compound: CC(NC(=O)c1cc(C(F)(F)F)cc(C(F)(F)F)c1)c1nc(N)nn1-c1ncccn1 (stereo not shown)
100%

Indicate the recorded pest or weed control at 1 µg/cm2, 100 g/ha value for this compound: CC(NC(=O)c1cc(Cl)cc(S(C)(=O)=O)c1)c1nc(NC(=O)C2(Cl)CC2)nn1-c1ccc(Cl)cn1 (stereo not shown)
100%
